# Test system: Hepa: human hepatoma
# protocol-text: In vitro anticancer assay (cytotoxicity), human solid tumor cells
# assay-setup: Homo sapiens, HepA, read-out: IC50 Values of Cytotoxicities, Hepa
quantity-measured: IC50

[
  {
    "compound": "CCCCC#C/C=C\\C#Cc1ccccc1C#N [Compound 3, 2-(3(Z)-Decen-1,5-diynyl)benzonitrile]",
    "quantity-measured": "IC50",
    "test-value": "12.5 µg/mL"
  },
  {
    "compound": "CCCCCCC#C/C=C\\C#Cc1ccc([N+](=O)[O-])cc1",
    "quantity-measured": "IC50",
    "test-value": "> 20 µg/mL"
  },
  {
    "compound": "CCCCCCC#C/C=C\\C#Cc1ccc(C#N)cc1 [Compound 14, 4-(3-(Z)-Dodecen-1,5-diynyl)benzonitrile]",
    "quantity-measured": "IC50",
    "test-value": "> 20 µg/mL"
  }
]

###

This section presents molecules with their documented Growth percentage, Non-small cell Lung cancer cell NCI-H460 values.
# Test system: Non-small cell Lung cancer cell NCI-H460
# protocol-text: Preliminary cytotoxicity test
# Type: cell-based, human
Marks after values point to notes of the source that are not given here.
quantity-measured: Growth percentage, Non-small cell Lung cancer cell NCI-H460

[
  {
    "molecule": "N#Cc1ccccc1C#CC=CC#Cc1ccccn1 [Compound 27]",
    "target-desc": "Non-small cell Lung cancer cell NCI-H460",
    "test-value": "23* %"
  },
  {
    "molecule": "Cc1ccc(C#CC=CC#Cc2ccccc2C#N)cc1 [Compound 28]",
    "target-desc": "Non-small cell Lung cancer cell NCI-H460",
    "test-value": "96%"
  },
  {
    "molecule": "N#Cc1ccccc1C#CC=CC#Cc1cnccn1 [Compound 30]",
    "target-desc": "Non-small cell Lung cancer cell NCI-H460",
    "test-value": "8* %"
  },
  {
    "molecule": "N#Cc1ccccc1C#CC=CC#Cc1cccs1 [Compound 29]",
    "target-desc": "Non-small cell Lung cancer cell NCI-H460",
    "test-value": "34%"
  },
  {
    "molecule": "N#Cc1ccccc1C#CC=CC#Cc1ccc(N)cc1 [Compound 33]",
    "target-desc": "Non-small cell Lung cancer cell NCI-H460",
    "test-value": "94%"
  },
  {
    "molecule": "N#Cc1ccccc1C#CC=CC#Cc1ccccc1N [Compound 32]",
    "target-desc": "Non-small cell Lung cancer cell NCI-H460",
    "test-value": "8* %"
  }
]

###

# Tested on: CAKI-1
# assay-setup: read-out: LC50 CAKI-1; Table 4
This section presents compounds with their documented CC50 values.

[
  {
    "compound": "N#Cc1ccccc1C#CC=CC#Cc1ccccn1 [Compound 27]",
    "CC50": "> 100 µM"
  },
  {
    "compound": "N#Cc1ccccc1C#CC=CC#Cc1ccccc1N [Compound 32]",
    "CC50": "35.9 µM"
  },
  {
    "compound": "N#Cc1ccccc1C#CC=CC#Cc1cnccn1 [Compound 30]",
    "CC50": "> 100 µM"
  }
]

###

# Tested on: Leukemia cell lines
# protocol-text: NCI full panel screen, panel average
# assay-setup: Homo sapiens, read-out: cytotoxicity, average of all Leukemia cell lines
pIC50: −log10 of the molar value.

[
  {
    "compound-structure-string": "N#Cc1ccccc1C#CC=CC#Cc1cnccn1",
    "pIC50": 5.30
  },
  {
    "compound-structure-string": "N#Cc1ccccc1C#CC=CC#Cc1ccccc1N",
    "pIC50": 6.37
  },
  {
    "compound-structure-string": "N#Cc1ccccc1C#CC=CC#Cc1ccccn1",
    "pIC50": 4.89
  }
]

###

# System: K-562
# assay-setup: read-out: LC50 K-562; Table 4
This section presents molecules with their documented CC50 values.
quantity-measured: CC50

[
  {
    "molecule": "N#Cc1ccccc1C#CC=CC#Cc1cnccn1 [Compound 30]",
    "test-value": "> 100 µM"
  },
  {
    "molecule": "N#Cc1ccccc1C#CC=CC#Cc1ccccc1N [Compound 32]",
    "test-value": "> 100 µM"
  },
  {
    "molecule": "N#Cc1ccccc1C#CC=CC#Cc1ccccn1 [Compound 27]",
    "test-value": "> 100 µM"
  }
]

###

# System: NCI-H522
# assay-setup: read-out: LC50 NCI-H522; Table 4
This section presents compounds with their documented CC50 values.
quantity-measured: CC50

[
  {
    "compound-structure-string": "N#Cc1ccccc1C#CC=CC#Cc1cnccn1",
    "target-desc": "NCI-H522",
    "test-value": "> 100 µM"
  },
  {
    "compound-structure-string": "N#Cc1ccccc1C#CC=CC#Cc1ccccc1N",
    "target-desc": "NCI-H522",
    "test-value": "8.62 µM"
  },
  {
    "compound-structure-string": "N#Cc1ccccc1C#CC=CC#Cc1ccccn1",
    "target-desc": "NCI-H522",
    "test-value": "84.7 µM"
  }
]

###

# Test system: KB: human oral epidermoid carcinoma
# protocol-text: In vitro anticancer assay (cytotoxicity), human solid tumor cells
quantity-measured: IC50 Values of Cytotoxicities, KB

[
  {
    "molecule": "CCCCCCC#C/C=C\\C#Cc1cccc(C(F)(F)F)c1 [Compound 19]",
    "quantity-measured": "IC50 Values of Cytotoxicities, KB",
    "test-value": "6.74 µg/mL"
  },
  {
    "molecule": "CCCCCCC#C/C=C\\C#Cc1ccc(C(F)(F)F)cc1 [Compound 18]",
    "quantity-measured": "IC50 Values of Cytotoxicities, KB",
    "test-value": "4.32 µg/mL"
  },
  {
    "molecule": "CCCCCCC#C/C=C\\C#Cc1ccccc1C(F)(F)F [Compound 20]",
    "quantity-measured": "IC50 Values of Cytotoxicities, KB",
    "test-value": "19.65 µg/mL"
  }
]

###

# System: Hepa: human hepatoma
# protocol-text: In vitro anticancer assay (cytotoxicity), human solid tumor cells
# assay-setup: Hepa
Mark each entry MET if its IC50 Values of Cytotoxicities, Hepa sits below 10 µg/mL, and NOT MET for all others.

[
  {
    "compound": "CCCCCCC#C/C=C\\C#Cc1cccc(C(F)(F)F)c1 [Compound 19]",
    "target-desc": "Hepa: human hepatoma",
    "group-label": "NOT MET"
  },
  {
    "compound": "N#Cc1ccccc1C#C/C=C\\C#CCCCOC1CCCCO1 (stereo not shown) [Compound 2]",
    "target-desc": "Hepa: human hepatoma",
    "group-label": "NOT MET"
  },
  {
    "compound": "CCCCCCC#C/C=C\\C#Cc1ccccc1C(F)(F)F [Compound 20]",
    "target-desc": "Hepa: human hepatoma",
    "group-label": "NOT MET"
  },
  {
    "compound": "CCCCCCC#C/C=C\\C#Cc1ccc(C(F)(F)F)cc1 [Compound 18]",
    "target-desc": "Hepa: human hepatoma",
    "group-label": "NOT MET"
  },
  {
    "compound": "N#Cc1ccccc1C#C/C=C\\C#CCOC1CCCCO1 (stereo not shown) [Compound 1]",
    "target-desc": "Hepa: human hepatoma",
    "group-label": "NOT MET"
  },
  {
    "compound": "CCCCCC#Cc1ccccc1C#Cc1ccccc1C#N [Compound 10]",
    "target-desc": "Hepa: human hepatoma",
    "group-label": "MET"
  }
]

###

# Test system: NCI (NCI-H661): human lung large cell carcinoma
# protocol-text: In vitro anticancer assay (cytotoxicity), human solid tumor cells
# assay-setup: NCI (NCI-H661)
quantity-measured: IC50 Values of Cytotoxicities, NCI (µg/mL)

[
  {
    "molecule": "CCCCC#C/C=C\\C#Cc1ccc(Cl)cc1 [Compound 13]",
    "quantity-measured": "IC50 Values of Cytotoxicities, NCI",
    "display-unit": "µg/mL",
    "test-value": 8.00
  },
  {
    "molecule": "CCCCCCC#C/C=C\\C#Cc1cccc(C(F)(F)F)c1 [Compound 19]",
    "quantity-measured": "IC50 Values of Cytotoxicities, NCI",
    "display-unit": "µg/mL",
    "test-value": 7.73
  },
  {
    "molecule": "CCCCCCC#C/C=C\\C#Cc1ccccc1C(F)(F)F [Compound 20]",
    "quantity-measured": "IC50 Values of Cytotoxicities, NCI",
    "display-unit": "µg/mL",
    "test-value": 5.02
  },
  {
    "molecule": "CCCCCCC#C/C=C\\C#Cc1ccc(C(F)(F)F)cc1 [Compound 18]",
    "quantity-measured": "IC50 Values of Cytotoxicities, NCI",
    "display-unit": "µg/mL",
    "test-value": 11.15
  },
  {
    "molecule": "CCCCCC#Cc1ccccc1C#Cc1ccccc1C#N [Compound 10]",
    "quantity-measured": "IC50 Values of Cytotoxicities, NCI",
    "display-unit": "µg/mL",
    "test-value": 9.22
  },
  {
    "molecule": "CCCCCCC#C/C=C\\C#Cc1ccc(C(C)=O)cc1 [Compound 23, 4-(3-(Z)-Dodecen-1,5-diynyl)acetophenone]",
    "quantity-measured": "IC50 Values of Cytotoxicities, NCI",
    "display-unit": "µg/mL",
    "test-value": 13.13
  }
]
